Data credit: the kinase profiling compilation of Christmann-Franck et al. (2016)

I'd be grateful if you could share measured residual activity for these entries.
- test-system: MAPK3 (human) (UniProt P27361)
- Sequence (P27361 whole entry, looked up): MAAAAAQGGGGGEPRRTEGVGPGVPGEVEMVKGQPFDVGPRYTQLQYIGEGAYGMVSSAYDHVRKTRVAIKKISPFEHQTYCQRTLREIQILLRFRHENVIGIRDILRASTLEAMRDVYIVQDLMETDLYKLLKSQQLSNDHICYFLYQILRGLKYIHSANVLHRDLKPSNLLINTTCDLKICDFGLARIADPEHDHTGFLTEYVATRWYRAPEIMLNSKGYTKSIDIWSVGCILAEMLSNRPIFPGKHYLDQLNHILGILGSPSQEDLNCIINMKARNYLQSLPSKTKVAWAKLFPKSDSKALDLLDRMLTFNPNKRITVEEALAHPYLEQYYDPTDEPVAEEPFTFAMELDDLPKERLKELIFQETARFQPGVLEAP
- method-notes: radiometric filter-binding kinase assay, Kinase HotSpot
- protocol-conditions: compound 0.5 µM; ATP 10 µM

**Query** Which value of residual activity has been reported for `Nc1nc(Nc2ccc(S(N)(=O)=O)cc2)nn1C(=O)c1c(F)cccc1F` in the records?
**Result** 108%

**Query** Any idea what residual activity was measured for `C#Cc1cccc(Nc2ncnc3cc(OCCOC)c(OCCOC)cc23)c1` ?
**Result** 101%

**Query** Give the measured residual activity of `COc1cc2ncnc(Nc3ccc(F)c(Cl)c3)c2cc1OCCCN1CCOCC1` .
**Result** 100%

**Query** Any idea what its residual activity is? The compound is `CC(C)n1cnc2c(Nc3cccc(Cl)c3)nc(NCCO)nc21`
**Result** 111%

**Query** What does the record list as residual activity for `O=C1Cc2c([nH]c3ccc([N+](=O)[O-])cc23)-c2ccccc2N1` ?
**Result** 93.5%

**Query** Recorded residual activity for `O=c1cc(-c2cccc3c2Sc2ccccc2S3)oc(N2CCOCC2)c1` , please?
**Result** 118%
